Source: patent US11236102B2

TEST_NAME: Pharmacokinetic study of 151 (iv, oral) in SD rats: 151 and 100 in plasma
Type: in vivo
APPLIED_CONDITIONS: male, Sprague-Dawley, rat, in vivo, po, 10 mg/kg, 151 PO 10 mg/kg, SD rats, 3.0 h, individual rats
ENDPOINT_NAME: concentration at 3 h (ng/mL)
Write down the numeric answer in ng/mL and omit the unit.

Ask: Reported concentration at 3 h, compound COC(=O)C1C2CCC(O2)C1C(=O)N1CCN(C)CC1 (stereo not shown) : ____
Result: 521

###

TEST_NAME: Pharmacokinetic study of 151 (iv, oral) in SD rats: 151 and 100 in plasma
Type: in vivo
APPLIED_CONDITIONS: male, Sprague-Dawley, rat, in vivo, po, 10 mg/kg, plasma, 151 PO 10 mg/kg, SD rats, mean; read-out: T1/2 of 151 (converted)
ENDPOINT_NAME: half-life

Ask: # get_value(readout='half-life', item= COC(=O)C1C2CCC(O2)C1C(=O)N1CCN(C)CC1 (stereo not shown) )
Result: 1.26 h

###

TEST_NAME: in vivo
APPLIED_CONDITIONS: male, SD, rat, iv, 1.4 mg/kg, Liver-plasma concentration ratio of Endothal, 113 IV 1.4 mg/kg, SD rats, 1 hr, individual
ENDPOINT_NAME: Kp at 1 hr

Ask: Would you kindly share the measured Kp at 1 hr for O=C(O)C1C2CCC(O2)C1C(=O)O (stereo not shown) [Endothal] ?
Result: 21.7

###

TEST_NAME: in vivo
Parameters: species or system SD rats
APPLIED_CONDITIONS: male, Sprague-Dawley, rat, in vivo; 105 in liver, IV 1 mg/kg, mean
ENDPOINT_NAME: Tmax (min)
Reply with just the number (in min).

Ask: Reported Tmax, compound CCN1CCN(C(=O)C2C3CCC(O3)C2C(=O)O)CC1 (stereo not shown) : ____
Result: 15

###

TEST_NAME: in vivo
Format: in vivo, SD rats
APPLIED_CONDITIONS: female, Sprague-Dawley, rat, in vivo, po, 1.25 mg/kg
ENDPOINT_NAME: concentration at 2 hr (ng/mL)
Field: numeric (ng/mL). Do not append units.

Ask: So what's the measured concentration at 2 hr for this one? CCCOC(=O)C1C2CCC(O2)C1C(=O)N1CCN(C)CC1 (stereo not shown)
Result: 42

###

TEST_NAME: in vivo
APPLIED_CONDITIONS: male, Sprague-Dawley, rat, po, 1.4 mg/kg
ENDPOINT_NAME: Tmax (min)
Form entry: value (min) — number only.

Ask: Given CN1CCN(C(=O)C2C(C(=O)OCC(Cl)(Cl)Cl)[C@H]3CC[C@@H]2O3)CC1 (stereo partly shown) , state its recorded Tmax.
Result: 15

###

TEST_NAME: Pharmacokinetic study of 151 (iv, oral) in SD rats: 151 and 100 in plasma
Assay type: in vivo
APPLIED_CONDITIONS: male, Sprague-Dawley, rat, in vivo, iv, 1 mg/kg, 151 IV 1.0 mg/kg, SD rats, 1.0 h, individual rats
Experimental: The absolute bioavailability was evaluated. To each sample, 160 μL of acetonitrile were added. The mass spectrometer was operated in the positive mode. Quantification was achieved by the external standard method. Calibration Curve for Plasma Samples LB100 concentrations of the LB151 plasma samples were also measured and pharmacokinetic parameters were calculated.
ENDPOINT_NAME: concentration at 1 h (ng/mL)
State the answer as a number, implicitly in ng/mL.

Ask: Query (molecule): COC(=O)C1C2CCC(O2)C1C(=O)N1CCN(C)CC1 (stereo not shown) ; field requested: concentration at 1 h
Result: 381
